- system_tested: T1, human TREM2 Fc fusion (entire TREM2 ECD; only one Fc arm fused to TREM2) (human, UniProt Q9NZC2 19-174)
- T1 construct: also called huTREM2-Fc; recombinant hTREM2
- T1 sequence: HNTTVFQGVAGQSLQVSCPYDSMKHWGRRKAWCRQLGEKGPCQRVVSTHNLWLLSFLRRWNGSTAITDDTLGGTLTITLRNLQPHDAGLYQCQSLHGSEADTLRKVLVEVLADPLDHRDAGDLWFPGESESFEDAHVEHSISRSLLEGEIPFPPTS
- assay_info: BLI, Fab, monovalent
quantity: pKd
Conceptually, pKd converts a concentration in mol/L into minus its log10.

The examples below pair each entry with its known result.
binder: AL2p-h25 (antibody, human IgG1, V domains shown, humanized, human IgG1; Fab and IgG formats under one id) VH: QVQLVQSGAEVKKPGASLKISCKASGYAFSSSWMNWVRQAPGQGLEWIGRIYPGDGDTNYNGEFRVRATLTADTSTSTAYMELSSLRSEDTAVYYCARLLRNQPGESYAMDYWGQGALVTVSS VL: DVVMTQTPLSLSVTPGQPASISCRSSQSLVHSNGYTYLHWYLQKPGQSPQLLIYKVSNRFSGVPDRFSGSGSGTDFTLKISRVEAEDLGVYFCSQSTRVPYTFGQGTKLEIK
pKd: 6.82
//
binder: AL2p-h24 (antibody, human IgG1, V domains shown, humanized, human IgG1; Fab and IgG formats under one id) VH: QVQLVQSGAEVVKPGASLKISCKASGYAFSSSWMNWVRQAPGQGLEWIGRIYPGDGDTNYNQKFQGRATLTADTSTSTAYMELSSLRSEDTAVYFCARLLRNQPGESYAMDYWGQGALVTVSS VL: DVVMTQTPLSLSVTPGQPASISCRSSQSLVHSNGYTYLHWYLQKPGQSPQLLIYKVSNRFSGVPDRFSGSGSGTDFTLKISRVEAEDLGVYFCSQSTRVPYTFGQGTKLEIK
pKd: 5.94
//
binder: AL2p-h22 (antibody, human IgG1, V domains shown, humanized, human IgG1; Fab and IgG formats under one id) VH: QVQLVQSGAEVKKPGASVKVSCKASGYAFSSSWMNWVRQAPGQGLEWIGRIYPGDGDTNYAQKFQGRVTMTADTSTSTVYMELSSLRSEDTAVYYCARLLRNQPGESYAMDYWGQGTLVTVSS VL: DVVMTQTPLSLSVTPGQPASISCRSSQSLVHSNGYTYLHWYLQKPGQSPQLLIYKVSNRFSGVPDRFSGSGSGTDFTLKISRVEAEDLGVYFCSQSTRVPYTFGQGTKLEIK
pKd: 6.49
//
binder: AL2p-h59 (antibody, human IgG1, V domains shown, humanized, human IgG1; Fab and IgG formats under one id) VH: QVQLVQSGAEVKKPGASVKVSCKASGYAFSSSWMNWVRQAPGQRLEWMGRIYPGDGDTNYAQKFQGRVTITRDTSASTAYMELSSLRSEDTAVYYCARLLRNQPGESYAMDYWGQGTLVTVSS VL: DIVMTQSPLSLPVTPGEPASISCRSSQSLVHSNGYTYLHWYLQKPGQSPQLLIYKVSNRFSGVPDRFSGSGSGTDFTLKISRVEAEDVGVYYCSQSTRVPYTFGGGTKVEIK
pKd: 6.89

Look up pKd of AL2p-h35 (antibody, human IgG1, V domains shown, humanized, human IgG1; Fab and IgG formats under one id) VH: QVQLVQSGAEVKKPGSSVKVSCKASGYAFSSSWMNWVRQAPGQGLEWMGRIYPGDGDTNYAQKFQGRATITADTSTSTAYMELSSLRSEDTAVYYCARLLRNQPGESYAMDYWGQGTLVTVSS VL: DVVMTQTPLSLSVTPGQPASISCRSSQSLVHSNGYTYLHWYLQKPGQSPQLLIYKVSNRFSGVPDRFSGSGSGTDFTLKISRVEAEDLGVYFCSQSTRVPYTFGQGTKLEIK and report it.
6.90
